Data credit: patent US20230372498A1

Listed here: items and their measured Dmax.
- target_entity: PLK1 (Homo sapiens)
- Construct: endogenous in cells; host or cells: HeLa
- assay_summary: PLK1 protein degradation in HeLa cells, Western blotting (PLK1/GAPDH ratio)
- Type: cell-based
- condition_description: thymidine block and release, 6 hours compound incubation, 10 points three-fold from 3 μM, PLK1 to GAPDH ratio, read-out: Dmax
parameter: Dmax

>  <compound>
COc1cc(C(=O)NC2CCCN(CCOCCNc3cccc4c3C(=O)N(C3CCC(=O)NC3=O)C4=O)C2)c(F)cc1Nc1ncc2c(n1)N(C1CCCC1)CC(F)(F)C(=O)N2C (stereo not drawn)

>  <parameter>
Dmax

>  <meas_value>
60 to 80%

$$$$
>  <compound>
COc1cc(C(=O)NC2CCN(CCOCCOCCOCCOCCNc3cccc4c3C(=O)N(C3CCC(=O)N(C)C3=O)C4=O)CC2)c(F)cc1Nc1ncc2c(n1)N(C1CCCC1)CC(F)(F)C(=O)N2C (stereo not drawn)

>  <parameter>
Dmax

>  <meas_value>
< 60%

$$$$
>  <compound>
COc1cc(C(=O)NC2CCN(Cc3cn(CCCC(=O)Nc4cccc5c4C(=O)N(C4CCC(=O)NC4=O)C5=O)nn3)CC2)c(F)cc1Nc1ncc2c(n1)N(C1CCCC1)CC(F)(F)C(=O)N2C (stereo not drawn)

>  <parameter>
Dmax

>  <meas_value>
< 60%

$$$$
>  <compound>
COc1cc(C(=O)NC2CCN(C(=O)COCCOCCNc3cccc4c3CN(C3CCC(=O)NC3=O)C4=O)C2)c(F)cc1Nc1ncc2c(n1)N(C1CCCC1)CC(F)(F)C(=O)N2C (stereo not drawn)

>  <parameter>
Dmax

>  <meas_value>
≥ 80%

$$$$
>  <compound>
COc1cc(C(=O)NC2CCN(CCCC(=O)Nc3cccc4c3C(=O)N(C3CCC(=O)NC3=O)C4=O)CC2)c(F)cc1Nc1ncc2c(n1)N(C1CCCC1)CC(F)(F)C(=O)N2C (stereo not drawn)

>  <parameter>
Dmax

>  <meas_value>
60 to 80%

$$$$
>  <compound>
COc1cc(C(=O)N[C@H]2CCN(C(=O)CN3CCN(c4ccc5c(c4)C(=O)N(C4CCC(=O)NC4=O)C5=O)CC3)C2)c(F)cc1Nc1ncc2c(n1)N(C1CCCC1)CC(F)(F)C(=O)N2C (stereo partly drawn)

>  <parameter>
Dmax

>  <meas_value>
≥ 80%

$$$$

----------
Listed here: items and their measured DC50.
- target_entity: PLK1 (Homo sapiens, UniProt P53350)
- Construct: endogenous in cells; host or cells: HeLa
- Sequence (P53350 whole entry): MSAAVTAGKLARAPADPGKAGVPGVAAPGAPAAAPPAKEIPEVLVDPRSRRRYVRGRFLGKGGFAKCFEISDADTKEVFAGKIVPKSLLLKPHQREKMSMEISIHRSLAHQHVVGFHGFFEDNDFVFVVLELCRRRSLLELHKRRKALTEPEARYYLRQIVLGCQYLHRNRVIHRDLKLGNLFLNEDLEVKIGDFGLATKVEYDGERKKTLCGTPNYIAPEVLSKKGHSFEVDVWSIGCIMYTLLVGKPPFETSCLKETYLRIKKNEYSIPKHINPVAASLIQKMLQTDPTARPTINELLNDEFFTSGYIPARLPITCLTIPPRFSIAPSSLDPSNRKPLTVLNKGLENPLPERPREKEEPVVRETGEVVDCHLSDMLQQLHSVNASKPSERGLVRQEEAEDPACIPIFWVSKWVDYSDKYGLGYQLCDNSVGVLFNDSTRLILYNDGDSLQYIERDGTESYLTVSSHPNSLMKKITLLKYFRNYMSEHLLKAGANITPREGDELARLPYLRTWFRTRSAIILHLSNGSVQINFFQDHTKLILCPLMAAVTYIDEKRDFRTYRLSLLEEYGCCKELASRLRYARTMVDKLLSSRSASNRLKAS
- assay_summary: PLK1 protein degradation in HeLa cells, Western blotting (PLK1/GAPDH ratio)
- Assay type: cell-based
- condition_description: 6 hours compound incubation, measured only if the grade of Dmax is A or B
- Text: The HeLa cell line was purchased from Korea Cell Line Bank (KCLB), Seoul, Korea. The passage in cell culture was maintained at P115 to P125. […]

>  <molecule>
COc1cc(C(=O)NC2CCN(CCOCCOCCOCCOCCNc3ccc4c(c3)C(=O)N(C3CCC(=O)NC3=O)C4=O)CC2)c(F)cc1Nc1ncc2c(n1)N(C1CCCC1)CC(F)(F)C(=O)N2C (centres unmarked)

>  <target_entity>
PLK1 (Homo sapiens, UniProt P53350)

>  <DC50>
≤ 50 nM

$$$$
>  <molecule>
COc1cc(C(=O)NC2CN(CCOCCOCCNc3cccc4c3C(=O)N(C3CCC(=O)NC3=O)C4=O)C2)c(F)cc1Nc1ncc2c(n1)N(C1CCCC1)CC(F)(F)C(=O)N2C (centres unmarked)

>  <target_entity>
PLK1 (Homo sapiens, UniProt P53350)

>  <DC50>
≤ 50 nM

$$$$
>  <molecule>
COc1cc(C(=O)NC2CCN(C[C@@H]3C[C@@H]3CNc3cccc4c3C(=O)N(C3CCC(=O)NC3=O)C4=O)CC2)c(F)cc1Nc1ncc2c(n1)N(C1CCCC1)CC(F)(F)C(=O)N2C (some centres unmarked)

>  <target_entity>
PLK1 (Homo sapiens, UniProt P53350)

>  <DC50>
≤ 500 nM

$$$$
>  <molecule>
COc1cc(C(=O)NC2CCN(CCOCCOCCNc3cccc4c3C(=O)N(C3CCC(=O)NC3=O)C4=O)CC2)ccc1Nc1ncc2c(n1)N(C1CCCC1)CC(F)(F)C(=O)N2C (centres unmarked)

>  <target_entity>
PLK1 (Homo sapiens, UniProt P53350)

>  <DC50>
≤ 50 nM

$$$$
>  <molecule>
COc1cc(C(=O)N[C@@H]2CCN(C(=O)CCCN3CCN(c4ccc5c(c4)C(=O)N(C4CCC(=O)NC4=O)C5=O)CC3)C2)c(F)cc1Nc1ncc2c(n1)N(C1CCCC1)CC(F)(F)C(=O)N2C (some centres unmarked)

>  <target_entity>
PLK1 (Homo sapiens, UniProt P53350)

>  <DC50>
≤ 50 nM

$$$$
>  <molecule>
COc1cc(C(=O)NC2CCN(C(=O)CCN3CCN(c4ccc5c(c4)C(=O)N(C4CCC(=O)NC4=O)C5=O)CC3)CC2)c(F)cc1Nc1ncc2c(n1)N(C1CCCC1)CC(F)(F)C(=O)N2C (centres unmarked)

>  <target_entity>
PLK1 (Homo sapiens, UniProt P53350)

>  <DC50>
≤ 50 nM

$$$$
>  <molecule>
COc1cc(C(=O)NC2CCN(C(=O)CCOCCNc3cccc4c3C(=O)N(C3CCC(=O)NC3=O)C4=O)C2)c(F)cc1Nc1ncc2c(n1)N(C1CCCC1)CC(F)(F)C(=O)N2C (centres unmarked)

>  <target_entity>
PLK1 (Homo sapiens, UniProt P53350)

>  <DC50>
≤ 50 nM

$$$$
>  <molecule>
COc1cc(C(=O)NCCCCCCc2cccc3c2CN(C2CCC(=O)NC2=O)C3=O)c(F)cc1Nc1ncc2c(n1)N(C1CCCC1)CC(F)(F)C(=O)N2C (centres unmarked)

>  <target_entity>
PLK1 (Homo sapiens, UniProt P53350)

>  <DC50>
≤ 500 nM

$$$$
>  <molecule>
COc1cc(C(=O)NCCOCCOCCNc2cccc3c2C(=O)N(C2CCC(=O)NC2=O)C3=O)c(F)cc1Nc1ncc2c(n1)N(C1CCCC1)CC(F)(F)C(=O)N2C (centres unmarked)

>  <target_entity>
PLK1 (Homo sapiens, UniProt P53350)

>  <DC50>
≤ 50 nM

$$$$
>  <molecule>
COc1cc(C(=O)NC2CCN(CCOCCOCCOCCOCCOCCNc3cccc4c3C(=O)N(C3CCC(=O)NC3=O)C4=O)CC2)c(F)cc1Nc1ncc2c(n1)N(C1CCCC1)CC(F)(F)C(=O)N2C (centres unmarked)

>  <target_entity>
PLK1 (Homo sapiens, UniProt P53350)

>  <DC50>
≤ 50 nM

$$$$
>  <molecule>
COc1cc(C(=O)N[C@H]2CCN(C(=O)CCN3CCN(c4cccc5c4C(=O)N(C4CCC(=O)NC4=O)C5=O)CC3)C2)c(F)cc1Nc1ncc2c(n1)N(C1CCCC1)CC(F)(F)C(=O)N2C (some centres unmarked)

>  <target_entity>
PLK1 (Homo sapiens, UniProt P53350)

>  <DC50>
≤ 50 nM

$$$$
